Experiment: Biodistribution in Daudi xenograft bearing mice
Assay type: in vivo, mouse
Details: female, CB-17 SCID, mouse, adrenals, iv, with AMD3100, 50 µg per animal, coinjected (CXCR4 competition), total radioactivity, 1h p.i., coinjection of 50 µg AMD3100/animal; n=1; read-out: Biodistribution adrenals, + AMD3100
Where a SMILES comes first, the peptide text is derived from it. Side-chain parts run from the residue outwards. [ ]: non-standard residue; d: D form. The star is where a group is joined. DOTA = O=C(O)CN1CCN(CC(=O)O)CCN(CC(=O)*)CCN(CC(=O)O)CC1; 2Nal = N[C@@H](Cc1ccc2ccccc2c1)C(=O)O; dNMeOrn = CN[C@H](CCCN)C(=O)O; 4Abz = Nc1ccc(C(=O)O)cc1

Molecule | tissue uptake at 1 h
C[C@@H](NC(=O)[C@@H](CCCNC(=N)N)NC(=O)CN1CCN(CC(=O)O)CCN(CC(=O)O)CCN(CC(=O)O)CC1)C(=O)Nc1ccc(C(=O)NCCC[C@@H]2C(=O)N[C@@H](CCCNC(=N)N)C(=O)N[C@@H](Cc3ccc4ccccc4c3)C(=O)NCC(=O)N[C@H](Cc3ccc(O)cc3)C(=O)N2C)cc1 [[^177Lu]DOTA-r-a-ABA-CPCR4, metal not drawn] (cyclo([2Nal]G[dY][dNMeOrn]([4Abz-dA-dR-DOTA])R)) | 1.22 %ID/g

* * *

Experiment: Lipophilicity, modified shake-flask method
Assay type: physicochemical
Settings: octanol/PBS, O/PBS, radiolabeled compound, means ± SD (n=6)
Where a SMILES comes first, the peptide text is derived from it. Side-chain parts run from the residue outwards. [ ]: non-standard residue; d: D form. The star is where a group is joined. DOTA = O=C(O)CN1CCN(CC(=O)O)CCN(CC(=O)*)CCN(CC(=O)O)CC1; dTyr(3-I) = N[C@H](Cc1ccc(O)c(I)c1)C(=O)O; 2Nal = N[C@@H](Cc1ccc2ccccc2c1)C(=O)O; dNMeOrn = CN[C@H](CCCN)C(=O)O; 4Amb = NCc1ccc(C(=O)O)cc1

Molecule | logD
CN1C(=O)[C@@H](Cc2ccc(O)c(I)c2)NC(=O)CNC(=O)[C@H](Cc2ccc3ccccc3c2)NC(=O)[C@H](CCCNC(=N)N)NC(=O)[C@H]1CCCNC(=O)c1ccc(CNC(=O)CN2CCN(CC(=O)O)CCN(CC(=O)O)CCN(CC(=O)O)CC2)cc1 [[^177Lu]PentixaTher, metal not drawn, reference compound] (cyclo([dTyr(3-I)][dNMeOrn]([4Amb-DOTA])R[2Nal]G)) | -1.8

* * *

Here the recorded tissue uptake at 48 h is given for each entry.
Experiment: Biodistribution in Daudi xenograft bearing mice
Assay type: in vivo, mouse
Conditions: female, CB-17 SCID, mouse, spleen, iv, total radioactivity, 48h p.i., i.v.; means ± SD, n=4-5; read-out: Biodistribution spleen
Protocol: The biodistribution of selected compounds was investigated in Daudi (human B-cell lymphoma) xenograft bearing female CB-17 SCID mice (6-8 weeks, Charles River, Sulzfeld, Germany), [29]. […] Animals (n=4-5 per group) were injected intravenously with 5-10 MBq (0.08-0.11 nmol peptide per mouse) of the respective ^68Ga- and^ 177Lu-labeled CXCR4 ligands in PBS (100 µL) into the tail vein under isoflurane anesthesia. CXCR4-specificity of binding was determined by coinjection of 50 µg AMD3100 per mouse. […]
Where a SMILES comes first, the peptide text is derived from it. Side-chain parts run from the residue outwards. [ ]: non-standard residue; d: D form. The star is where a group is joined. DOTA = O=C(O)CN1CCN(CC(=O)O)CCN(CC(=O)*)CCN(CC(=O)O)CC1; dTyr(3-I) = N[C@H](Cc1ccc(O)c(I)c1)C(=O)O; 2Nal = N[C@@H](Cc1ccc2ccccc2c1)C(=O)O; dNMeOrn = CN[C@H](CCCN)C(=O)O; 4Abz = Nc1ccc(C(=O)O)cc1

Molecule | tissue uptake at 48 h
C[C@@H](NC(=O)[C@@H](CCCNC(=N)N)NC(=O)CN1CCN(CC(=O)O)CCN(CC(=O)O)CCN(CC(=O)O)CC1)C(=O)Nc1ccc(C(=O)NCCC[C@@H]2C(=O)N[C@@H](CCCNC(=N)N)C(=O)N[C@@H](Cc3ccc4ccccc4c3)C(=O)NCC(=O)N[C@H](Cc3ccc(O)cc3)C(=O)N2C)cc1 [[^177Lu]DOTA-r-a-ABA-CPCR4, metal not drawn] (cyclo([2Nal]G[dY][dNMeOrn]([4Abz-dA-dR-DOTA])R)) | 1.06 %ID/g
C[C@@H](NC(=O)[C@@H](CCCNC(=N)N)NC(=O)CN1CCN(CC(=O)O)CCN(CC(=O)O)CCN(CC(=O)O)CC1)C(=O)Nc1ccc(C(=O)NCCC[C@@H]2C(=O)N[C@@H](CCCNC(=N)N)C(=O)N[C@@H](Cc3ccc4ccccc4c3)C(=O)NCC(=O)N[C@H](Cc3ccc(O)c(I)c3)C(=O)N2C)cc1 [[^177Lu]DOTA-r-a-ABA-iodoCPCR4, metal not drawn] (cyclo([2Nal]G[dTyr(3-I)][dNMeOrn]([4Abz-dA-dR-DOTA])R)) | 2.72 %ID/g
